Numbers sourced from patent US20250333467A1.

Potency (cAMP, transient hRXFP1 in HEK293) reference
Molecular target: T1, human RXFP1 (human, UniProt Q9HBX9 1-757)
T1 sequence (looked up): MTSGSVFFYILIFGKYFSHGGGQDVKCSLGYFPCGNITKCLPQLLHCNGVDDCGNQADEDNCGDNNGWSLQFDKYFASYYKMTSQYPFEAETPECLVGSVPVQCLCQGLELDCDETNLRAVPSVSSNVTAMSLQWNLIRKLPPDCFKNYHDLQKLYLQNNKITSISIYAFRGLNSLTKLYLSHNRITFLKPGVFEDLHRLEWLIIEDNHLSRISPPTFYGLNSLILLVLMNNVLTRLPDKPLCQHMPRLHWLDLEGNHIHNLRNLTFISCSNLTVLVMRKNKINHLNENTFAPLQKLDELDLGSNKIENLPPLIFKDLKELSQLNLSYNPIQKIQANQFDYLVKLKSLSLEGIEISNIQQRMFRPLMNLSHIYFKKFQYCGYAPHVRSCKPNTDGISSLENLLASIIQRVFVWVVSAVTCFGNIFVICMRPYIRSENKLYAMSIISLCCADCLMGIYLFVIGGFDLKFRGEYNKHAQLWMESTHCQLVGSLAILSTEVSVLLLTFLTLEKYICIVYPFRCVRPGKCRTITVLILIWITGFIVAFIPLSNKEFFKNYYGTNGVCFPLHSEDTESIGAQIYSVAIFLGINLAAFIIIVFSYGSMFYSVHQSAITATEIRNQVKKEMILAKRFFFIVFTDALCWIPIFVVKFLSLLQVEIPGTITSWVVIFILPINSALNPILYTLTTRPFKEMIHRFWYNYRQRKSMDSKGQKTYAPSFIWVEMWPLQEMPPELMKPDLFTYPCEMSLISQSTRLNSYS
Assay: cell-based or functional assay
# value in nM; strip the unit string

Worked set:
SEQ ID NO: 319 (Fc fusion) DKTHTCPPCPAPEAAGGPSVFLFPPKPKDTLMISRTPEVTCVVVDVSHEDPEVKFNWYVDGVEVHNAKTKPREEQYNSTYRVVSVLTVLHQDWLNGKEYKCKVSNKALAAPIEKTISKAKGQPREPQVYTLPPSRDELTKNQVSLTCLVKGFYPSDIAVEWESNGQPENNYKTTPPVLDSDGSFFLYSKLTVDKSRWQQGNVFSCSVLHEALHSHYTQKSLSLSPGKGGSDSWQEEVIKLCGRELVRAQIAICGKSTGGGEEGGGEEGGGRQLYSALANKCCHVGCTKRSLARFC
5.8
SEQ ID NO: 496 (Fc fusion) DKTHTCPPCPAPEAAGGPSVFLFPPKPKDTLMISRTPEVTCVVVDVSHEDPEVKFNWYVDGVEVHNAKTKPREEQYNSTYRVVSVLTVLHQDWLNGKEYKCKVSNKALAAPIEKTISKAKGQPREPQVYTLPPSRDELTKNQVSLTCLVKGFYPSDIAVEWESNGQPENNYKTTPPVLDSDGSFFLYSKLTVDKSRWQQGNVFSCSVLHEALHSHYTQKSLSLSPGKGGSDSWKEEVIKLCGRELVRAQIAICGKSTASDAAGANANAGARQLYSALANKCCHVGCTKRSLARFC
0.2
SEQ ID NO: 98 (Fc fusion) DKTHTCPPCPAPEAAGGPSVFLFPPKPKDTLMISRTPEVTCVVVDVSHEDPEVKFNWYVDGVEVHNAKTKPREEQYNSTYRVVSVLTVLHQDWLNGKEYKCKVSNKALAAPIEKTISKAKGQPREPQVYTLPPSRDELTKNQVSLTCLVKGFYPSDIAVEWESNGQPENNYKTTPPVLDSDGSFFLYSKLTVDKSRWQQGNVFSCSVLHEALHSHYTQKSLSLSPGEGGSDSWQEEVIKLCGRELVRAQIAICGQSTASDAAGADANAGARQLYSALANKCCHVGCTKRSLAQFC
8.8

Next up:
Given SEQ ID NO: 93 (Fc fusion) DKTHTCPPCPAPEAAGGPSVFLFPPKPKDTLMISRTPEVTCVVVDVSHEDPEVKFNWYVDGVEVHNAKTKPREEQYNSTYRVVSVLTVLHQDWLNGKEYKCKVSNKALAAPIEKTISKAKGQPREPQVYTLPPSRDELTKNQVSLTCLVKGFYPSDIAVEWESNGQPENNYKTTPPVLDSDGSFFLYSKLTVDKSRWQQGNVFSCSVLHEALHSHYTQKSLSLSPGEGGSDSWQEEVIKLCGRELVRAQIAICGKSTASDAAGADADAGARQLYSALANKCCHVGCTKRSLAQFC , respond with its Potency (cAMP, transient hRXFP1 in HEK293).
11.1
